These entries and their values trace back to ChEMBL document CHEMBL5308541.

Test system: Plasmodium falciparum
EXPERIMENTAL_DETAILS: Confirmatory screen in NF54 nanoGlo assay, in single point, at 2uM, 72h
Type: functional, Erythrocyte
EXPERIMENTAL_SETUP: timepoint 72 hour
The whole screen tested about 4,800 compounds, of which about 420 (8.8%) showed an effect of 50% or more. This excerpt belongs to a sample that is enriched for strong results.
Quick rule: % Inhibition of at least 70% means MET, below that means NOT MET.

Q. Could you please find out whether `CN(c1ccccc1)c1ccc(CN2CCN([C@H]3CCNC3)CC2)cc1` has % Inhibition that meets 70% or exceeds it?
A. NOT MET

Others:
Q. Test whether the compound `Cc1cc(O)c(Cl)cc1-c1cccc2c(N)ccnc12` records % Inhibition of 70% or higher.
A. MET

Q. Does the compound c1ccc(CCC23CN(Cc4ccccn4)CC2CN(Cc2ccns2)C3)cc1 (centres undefined) have recorded % Inhibition that is 70% or more?
A. MET

Q. Check this compound for % Inhibition at or above 70%: `Cc1cc(NC[C@H]2CN(CC(C)C)CCO2)c2ccccc2n1`
A. NOT MET

Q. Check this compound for % Inhibition at or above 70%: `Cc1cc(N2CCC(NCCCN3CCCc4ccccc43)CC2)nc(N)n1`
A. MET
